test system: AR 1.0 cells; assay: Potentiation index with doxorubicin titration; assay type: cell-based, mouse; details: Table C1, RMA 100 nM
quantity.kind: Potentiation Index at RMA concentration 100 nM
Number only, please.

Here are 5 compounds together with their reported answers.
compound | value
CN(CCc1ccc(NC(=O)c2ccccc2NC(=O)c2cnc3ccccc3c2)cc1)Cc1ccc(F)c(F)c1 | 6.7
COc1cc2c(cc1OC)C(C)N(CCc1ccc(NC(=O)c3ccccc3NC(=O)c3cnc4ccccc4c3)cc1)CC2 (stereo not shown) | 60
COc1cc(CN(C)CCc2ccc(NC(=O)c3ccccc3NC(=O)c3cnc4ccccc4c3)cc2)cc(OC)c1OC | 23.8
COc1ccc(CN(C)CCc2ccc(NC(=O)c3ccccc3NC(=O)c3cnc4ccccc4n3)cc2)cc1OC | 171
COc1cc2c(cc1OC)CN(CCOc1ccc(NC(=O)c3ccccc3NC(=O)c3cnc4ccccc4n3)cc1)CC2 | 8

For COc1ccc(CN(C)CCc2ccc(NC(=O)c3ccc(Cl)cc3NC(=O)c3cnc4ccccc4c3)cc2)cc1OC , what is its reported Potentiation Index at RMA concentration 100 nM?
82

Repeat for the following compound: COc1cc2c(cc1OC)CN(CCc1ccc(NC(=O)c3cc(N(C)C)ccc3NC(=O)c3cnc4ccccc4c3)cc1)CC2
45

Next up: COc1cc2c(cc1OC)CN(CCc1ccc(NC(=O)c3c(C)csc3NC(=O)c3cnc4ccccc4n3)cc1)CC2
178

Then CCOc1cc2c(cc1OCC)CN(CCc1ccc(NC(=O)c3ccccc3NC(=O)c3cnc4ccccc4c3)cc1)CC2 ?
50

What about this compound? COc1cc2c(cc1OC)CN(CCc1cccc(NC(=O)c3ccccc3NC(=O)c3cnc4ccccc4c3)c1)CC2
13.7

Let us now turn to COc1ccc(CN(C)CCc2ccc(NC(=O)c3ccccc3NC(=O)c3cnc4ccccc4c3)cc2)cc1O
6

Try this compound next: O=C(Nc1ccccc1C(=O)Nc1ccc(CCN2Cc3ccccc3C2)cc1)c1cnc2ccccc2c1
27

Consider next the compound COc1cc2c(cc1OC)CN(CCc1ccc(NC(=O)c3cscc3NC(=O)c3cnc4ccccc4c3)cc1)CC2 in the same way.
185

Ok, now COc1ccc(CN(C)Cc2ccc(NC(=O)c3ccccc3NC(=O)c3cnc4ccccc4c3)cc2)cc1OC(C)C
7.6

Next: COc1cc2c(cc1OC)CN(CCc1ccc(NC(=O)c3sccc3NC(=O)c3cnc4ccccc4c3)cc1)CC2
601

Please give the result for COc1ccc(CCN(C)CCc2ccc(NC(=O)c3ccccc3NC(=O)c3cnc4ccccc4c3)cc2)cc1OC too.
26

And COc1cc2c(cc1OC)CN(CCCc1cccc(NC(=O)c3ccccc3NC(=O)c3cnc4ccccc4c3)c1)CC2 ?
1.4

Do the same for COc1cc2c(cc1OC)CN(CCc1ccc(NC(=O)c3ccccc3NC(=O)c3coc(C)n3)cc1)CC2 please
2.6
